B1: FAM189A2 (parent)
chain: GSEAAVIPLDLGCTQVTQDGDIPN

Variants of: B1
Test: protein stability index of a GFP-peptide fusion (GPS, HEK-293T) (PSI 1-6); higher = more stable;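 note: lentivirally expressed fusions sorted by FACS into six bins by GFP to DsRed ratio, PSI derived from sequencing read proportions per bin multiplied by bin number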
Details: c terminus: a fixed tail appended
Binary classification by protein stability index, with 5 as an inclusive lower bound for met; all other cases are not met.

residue_change=Q15F label_value="not met"
residue_change=L11W label_value=met
residue_change=P8R label_value="not met"
residue_change=E3P label_value=met
